- System: OVCAR-8 ovarian
- EXPERIMENTAL_DETAILS: NCI tumour cell line growth inhibition, 48 h
Each entry below carries its recorded TGI.

Recorded TGI, per entry:
COMPOUND	READOUT_NAME	RESULT
O=C1NC(=S)N/C1=C\c1ccc(Sc2ccccc2C(=O)O)s1	TGI	> 100 µM
CC(=O)OCC1(CNc2nc(N)ncc2C#N)CC(CCc2ccccc2)C1 (stereo not given)	TGI	> 100 µM
CC(C)(C)N1CCC1C(N)=O (stereo not given)	TGI	> 100 µM
COCCn1cc(-c2csc(-c3c[nH]c4ccccc34)n2)c2cccnc21	TGI	> 100 µM
CCN1C2=NC(=O)N(C)C(=O)C2(Cl)C(C(SC)S(=O)(=O)c2ccc(C)cc2)c2ccccc21 (stereo not given)	TGI	50.4 µM

With those in mind, consider the next compound.
The value of TGI measured for the compound "O=c1c2ccccc2c2ccccc2c(=O)n1-c1cc2c3ccccc3ccc2c2ccccc12" turned out to be > 100 µM

----------
- Tested on: KM12 colon
- EXPERIMENTAL_DETAILS: NCI tumour cell line growth inhibition, 48 h
READOUT_NAME: TGI

Consider the following illustrative entries.
In [3]: df
Out[3]:
                                   compound    result
0                O=C(NCCNCCO)N/N=C/c1ccccc1  > 100 µM
1      Nc1ccccc1C#C/C=C\C#Cc1ccccc1C(F)(F)F   12.7 µM
2  Cc1cn([C@@H]2C[C@](C)(CO)N(C)O2)c(=O)[nH]c1=O  > 100 µM
3  COC(=O)c1c(C)cccc1C1CN=NC12Cc1cccc(C)c1C2=O (centres undefined)  > 100 µM
4  COc1cc2oc(=O)ccc2cc1C1OC(=O)C2OC21C (centres undefined)  > 100 µM

Reported TGI of "CCCC1c2c(ccc3ccccc23)Oc2ccc3ccccc3c21" : > 100 µM

// sample "Cc1ccc(C(=O)Nc2ccc(CN3CCN(C)CC3)c(C(F)(F)F)c2)cc1C#Cc1cnc(N)cc1C#N" , its TGI was 0.716 µM

----------
- Tested on: SR leukemia
- EXPERIMENTAL_DETAILS: NCI tumour cell line growth inhibition, 48 h
Documented TGI across a set of molecules

Examples with answers:
>>> df
                                   molecule    result
0  N#C[C@H]1C(=O)C(c2nc3ccccc3[nH]2)S[C@H]1c1ccccc1 (stereo not given in full)  > 100 µM
1                 O=c1cnc2cc3ccccc3cc2[nH]1  > 100 µM
2  O=C(/C=C/c1cccnc1)NCCCCC1CCN(C(=O)c2ccccc2)CC1  > 100 µM

For record "Clc1ccc(Cl)c2[s+]snc12" the listed TGI is > 100 µM

get_value(item= "CN(C)CCCn1c2c(c3cnccc3c1=O)C(=O)c1ccccc1-2" , readout=TGI) returns 0.793 µM

Data point: "CCCC[C@H]1C(=O)O[C@H](C)[C@H](NC(=O)c2cccc(NC=O)c2O)C(=O)O[C@@H](C)[C@@H]1OC(=O)CC(C)C" ; TGI = 38.3 µM

Reported TGI ( CCOC(=O)NC(OCc1ccccc1)(C(=O)OC)C(F)(F)F (stereo not given) ) = > 100 µM

Please fill in: TGI reported for CCCOC1OC(CS(=O)(=O)O)C(OC(C)=O)C(OC(C)=O)C1OC(C)=O (stereo not given) = > 100 µM

Kindly note the recorded TGI for CCCCCCCCCCCCCCCCCC(=O)OCC(CN(C)CCN(C)C)OC(=O)CCCCCCCCCCCCCCCCC (stereo not given) , which is 64.2 µM

TGI for "O=C(O)Cn1ncn(NC(=O)Cc2ccccc2)c1=S" is > 10 µM

----------
- Test system: OVCAR-3 ovarian
- EXPERIMENTAL_DETAILS: NCI tumour cell line growth inhibition, 48 h
# key: entry, value: TGI

These solved cases illustrate the format of a correct answer.
In [3]: df
Out[3]:
                                   compound  readout_name    result
0  Cc1cccc(C(C)(C)C)c1NC(=O)C(=O)C(C(=O)/C=C\c1ccccc1)C1OC(=O)c2ccccc21 (configuration not stated)           TGI  > 100 µM
1  NC(=O)c1cnc(N[C@@H]2CCCC[C@@H]2N)nc1Nc1cccc(-n2nccn2)c1           TGI   18.4 µM
2              O=C1c2c(O)cccc2Cc2cccc(O)c21           TGI   1.97 µM
3  CCOC(=O)/C(C1=N[C@H](C(=O)OCC)CS1)=C(\O)c1ccccc1           TGI  > 100 µM
4  CC(C)N(C(=O)C12C3C4C5(C#N)C3C1(I)C5C42I)C(C)C (configuration not stated)           TGI  > 100 µM

Value of measured TGI for the entry CCCN(CCCCC(NC(C)=O)C(=O)NCc1ccccc1)C(=O)NCCCl (configuration not stated) : > 100 µM

----------
This section presents compounds with their documented TGI values.
- Test system: MALME-3M melanoma
- EXPERIMENTAL_DETAILS: NCI tumour cell line growth inhibition, 48 h
Field format: number, assumed µM, no unit text.

>>> print(df.to_string())
                               query_smiles  numeric_result
0  Cc1ccc(C(=O)Nc2ccc(CN3CCN(C)CC3)c(C(F)(F)F)c2)cc1C#Cc1cnc(N)cc1C#N           0.187

Documented TGI of "C#Cc1cccc(Nc2ncnc3cc(OCCOC)c(OCCOC)cc23)c1" : 43

----------
- Tested on: MDA-MB-435
Could you please pick one outcome from this set? active, inactive

The examples below pair each entry with its known result.
                                   compound  answer_label
0  O=C(/C=C/c1cccnc1)NCCCCC1CCN(C(=O)c2ccccc2)CC1        active
1  Cc1cn(C2CC(F)C(CO)O2)c(=O)[nH]c1=O (centres undefined)      inactive

Prompt: Test call, this compound: "NC(=O)c1cnc(N[C@@H]2CCCC[C@@H]2N)nc1Nc1cccc(-n2nccn2)c1"
Completion: inactive

Prompt: // return assay outcome for COP(=O)(OC)C(NC(c1ccccc1)c1ccccc1)c1ccc2c(c1)OCO2 (centres undefined)
Completion: inactive

----------
- Test system: HL-60(TB) leukemia
- EXPERIMENTAL_DETAILS: NCI tumour cell line growth inhibition, 48 h
Returns one of class 1 or class 0; class 1 when TGI is >= 20 µM.

In [3]: df
Out[3]:
                                   compound  answer_label
0     CC(C)NCCNC(=O)c1ccccc1Nc1c(Cl)cccc1Cl       class 1
1            Nc1cc2ncnc(Nc3cccc(Br)c3)c2cn1       class 1
2  O=C1C=C[C@@]23CC1C(O)C[C@H]2C=Cc1ccccc13 (stereo partly drawn)       class 1
3  CC(C)N(C(=O)C12C3C4C5(C#N)C3C1(I)C5C42I)C(C)C (stereo not drawn)       class 1
4   O=c1[nH]nc(N/N=C\c2ccc(Cl)cc2)c2ccccc12       class 1
5              Oc1ccc(/C=N\Nc2ccccn2)c(O)c1       class 0

Prompt: Determine whether measured TGI meets or exceeds 20 µM for "CCN(CC)c1ccc(/C=C\c2cc(C)c3cc(C)ccc3n2)cc1"
Completion: class 0

Prompt: Could you please find out whether Cc1c(Cl)c(=O)oc2cc(OCC(O)COC(C)C)ccc12 (stereo not drawn) has TGI that meets 20 µM or exceeds it?
Completion: class 1

----------
- System: EKVX NSCLC
- EXPERIMENTAL_DETAILS: NCI tumour cell line growth inhibition, 48 h
Where a SMILES comes first, the peptide text is derived from it.
READOUT_NAME: TGI

Example molecules with recorded TGI:
MOLECULE	READOUT_NAME	RESULT
[N-]=[N+]=NC(c1cn(C2CC(O)C(CO)O2)c(=O)[nH]c1=O)C(Br)I (stereo not drawn)	TGI	> 100 µM
CCC(C)C(NC(=O)C1CCCN1)C(=O)NC(C(=O)NCC(=O)NC(CC(N)=O)C(=O)NC(CC(C)C)C(=O)NC(CC(C)C)C(=O)NC(CCCCN)C(N)=O)C(C)C (stereo not drawn) (H-PIVGNLLK-NH2; configuration not given here)	TGI	> 75 µM
COC(C/C=C\C=C\CC/C=C/CC(C)/C=C/C(=C\C(=O)O)CC(=O)O)/C(C)=C\C=C(/C)C(=O)O (stereo not drawn)	TGI	> 100 µM

Entry "Nc1ccccc1C#C/C=C\C#Cc1ccccc1C(F)(F)F" ; TGI = 15.2 µM

The molecule identified as "O=C1c2c(O)cccc2Cc2cccc(O)c21" registered its TGI at 0.572 µM

TGI measured on COC(=O)C1CC(C(=O)OC)c2nc3cc(C)ccc3nc21 (stereo not drawn) = > 100 µM
